Sourced from paper PMC9251316

Substrate: CC(=O)Oc1ccc([N+](=O)[O-])cc1
Assay: purified protein
Format: biochemical, Dorea formicigenerans
Conditions: 10 mM Tris-HCl pH 8.4, 2.5% Triton X-100, 40 °C
reported.metric: Km (mM)
Express it in mM; write the number only.

Query DfFAE (Dorea formicigenerans; P186A) (protein, E. coli T7; trimeric by SEC (117 kDa)) MNQKKECMDVHVNGLKFHVQTFGSGVPIIMIMGLGAPGDKWKHNYELLSKWFWCIVPDNRGAGLSDKPEAESYTTEQMADDIIGIMDALDIKKAHVMGVSMGGAIAQQVALKVPDRVLSLILTSTFASVSPAFKKALNLICELKEDTDPAVLKQLNLWMTYGQYTQIHHPEKIEKSIEEDAAYPYAMPVYAYKAQCGACLSHNTAGRLHELKMPVLIAAGAKDLFMNIEKTMELVHGIPQAEFYLAPEGGHVHQWEYPEPYDSVVVGFLMKHTN yields Km of 0.824

Lookup result for DfFAE (Dorea formicigenerans; V252A) (protein, E. coli T7; trimeric by SEC (117 kDa)) MNQKKECMDVHVNGLKFHVQTFGSGVPIIMIMGLGAPGDKWKHNYELLSKWFWCIVPDNRGAGLSDKPEAESYTTEQMADDIIGIMDALDIKKAHVMGVSMGGAIAQQVALKVPDRVLSLILTSTFASVSPAFKKALNLICELKEDTDPAVLKQLNLWMTYGQYTQIHHPEKIEKSIEEDAAYPYPMPVYAYKAQCGACLSHNTAGRLHELKMPVLIAAGAKDLFMNIEKTMELVHGIPQAEFYLAPEGGHAHQWEYPEPYDSVVVGFLMKHTN ; measured Km: 0.2889
